target: Cytochrome P450 2D6 (Homo sapiens) (UniProt P10635); test: Cytochrome panel assay with activity outcomes; settings: recombinant CYP, pro-luciferin dealkylation, luminescence, p450-cyp2d6; series mostly up to 57.1 µM
Sequence (P10635 whole entry, looked up): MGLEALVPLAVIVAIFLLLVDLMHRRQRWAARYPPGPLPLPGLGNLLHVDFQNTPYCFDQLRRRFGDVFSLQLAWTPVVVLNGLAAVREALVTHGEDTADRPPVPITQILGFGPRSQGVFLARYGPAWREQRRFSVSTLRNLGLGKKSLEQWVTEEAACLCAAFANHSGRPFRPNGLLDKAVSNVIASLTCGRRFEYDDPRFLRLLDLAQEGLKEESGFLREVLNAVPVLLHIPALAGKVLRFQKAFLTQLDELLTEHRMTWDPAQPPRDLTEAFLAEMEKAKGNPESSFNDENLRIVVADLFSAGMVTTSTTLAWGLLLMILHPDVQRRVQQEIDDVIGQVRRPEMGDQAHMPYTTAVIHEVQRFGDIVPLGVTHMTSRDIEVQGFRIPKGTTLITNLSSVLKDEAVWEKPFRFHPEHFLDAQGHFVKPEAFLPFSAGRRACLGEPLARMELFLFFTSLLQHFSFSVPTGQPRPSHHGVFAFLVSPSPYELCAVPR
In all, about 16,000 compounds went through this assay and about 2,600 (16%) were called active. Another 20% or so got no clear call; they are omitted. Not all results are given here.
outcome.measure: AC50

O=C(NCCCN1CCN(c2ccccc2F)CC1)C1CCC(=O)N1C1CCCCC1 (stereo unspecified) = inactive
Cc1cc(NC(=O)CSc2n[nH]c(-c3cccs3)n2)no1 = inactive
CC(=O)Oc1cc(C(F)(F)F)ccc1C(=O)O = inactive
CCC1(C)Cc2c(sc3nnn(CC(=O)Nc4cccc5ccccc45)c(=O)c23)CO1 (stereo unspecified) = 15.8 µM (active)
COc1ccc(C(=O)NCS(=O)(=O)c2ccc(C)cc2)cc1 = inactive

The molecule listed as O=C(O)C1=CCCNC1 shows AC50 equal to inactive
